Tested on: D. discoideum GFP-ABD
Details: 10 µM
Threshold check on D. discoideum GFP-ABD normalised growth, control=1.00, mean: at or above 1 gives 1, strictly below gives 0.

[
  {
    "molecule": "O=C(NCc1ccc(Oc2ccccc2)cc1)c1c(C(F)(F)F)nc2ccccn12 [GSK1829676A]",
    "label_class": 0
  },
  {
    "molecule": "COc1ccc(CCNc2cc(-c3ccccc3)nc3ncnn23)cc1 [GSK888636A]",
    "label_class": 1
  },
  {
    "molecule": "Nc1ccccc1Nc1ccc2c(c1)OCO2",
    "label_class": 1
  }
]

Inquiry: Decide: is the reported value of D. discoideum GFP-ABD normalised growth, control=1.00, mean for Br.Cc1ccccc1OCCCON1C(=N)N=C(N)NC1(C)C [BRL-8903SA] equal to or greater than 1?
Reply text: 0

Inquiry: Decide: is the reported value of D. discoideum GFP-ABD normalised growth, control=1.00, mean for Clc1ccc(CCNc2cc(-c3ccccc3)nc3ncnn23)cc1 [GSK1955236A] equal to or greater than 1?
Reply text: 0

Inquiry: Decide: is the reported value of D. discoideum GFP-ABD normalised growth, control=1.00, mean for COc1ccc(-c2nc(-c3cccc(NC(=O)Cc4ccc(F)cc4)c3)no2)cc1OC [GSK2043267A] equal to or greater than 1?
Reply text: 1

Inquiry: Decide: is the reported value of D. discoideum GFP-ABD normalised growth, control=1.00, mean for Cc1ccc2nc(C(F)(F)F)c(C(=O)NCc3cc(Cl)cc(Cl)c3)n2c1 [GSK1829736A] equal to or greater than 1?
Reply text: 0

Inquiry: Decide: is the reported value of D. discoideum GFP-ABD normalised growth, control=1.00, mean for Cc1nnc(NCc2cccc(Cl)c2)c2ccccc12 [GSK1302651A] equal to or greater than 1?
Reply text: 0

###

Tested on: M. marinum in BV2 microglial cells
Assay type: cell-based, Mycobacterium marinum
Conditions: 10 µM
reported_endpoint: hit in BV2/M. marinum assay True/False

// solved cases for hit in BV2/M. marinum assay True/False follow
[
  {
    "compound": "O=C(NC(Cc1ccccc1)C(=O)Nc1ccccc1N1CCOCC1)c1cccs1 (stereo not drawn) [GSK1055950A]",
    "reported_endpoint": "hit in BV2/M. marinum assay True/False",
    "result_value": "TRUE"
  },
  {
    "compound": "Cc1nc2ccccn2c1C(=O)NCc1ccc2c(c1)OCO2 [GSK498315A]",
    "reported_endpoint": "hit in BV2/M. marinum assay True/False",
    "result_value": "TRUE"
  },
  {
    "compound": "O=C(C=Cc1cccs1)N1CCN(Cc2ccc3c(c2)OCO3)CC1 [GW861072X]",
    "reported_endpoint": "hit in BV2/M. marinum assay True/False",
    "result_value": "TRUE"
  },
  {
    "compound": "Cc1ccc2nc(C(F)(F)F)c(C(=O)NCc3ccc4c(c3)OCO4)n2c1 [GSK1829732A]",
    "reported_endpoint": "hit in BV2/M. marinum assay True/False",
    "result_value": "TRUE"
  },
  {
    "compound": "O=C(NCc1ccc2c(c1)OCO2)c1c(C(F)(F)F)nc2ccccn12 [GSK1829671A]",
    "reported_endpoint": "hit in BV2/M. marinum assay True/False",
    "result_value": "TRUE"
  }
]

Inquiry: I would be grateful if you could share the reported hit in BV2/M. marinum assay True/False for Cc1ccc2nc(C(F)(F)F)c(C(=O)NCc3cc(Cl)cc(Cl)c3)n2c1 [GSK1829736A] .
Reply text: TRUE

Inquiry: I would be grateful if you could share the reported hit in BV2/M. marinum assay True/False for O=C(NCc1ccc(Oc2ccccc2)cc1)c1c(C(F)(F)F)nc2ccccn12 [GSK1829676A] .
Reply text: TRUE

Inquiry: I would be grateful if you could share the reported hit in BV2/M. marinum assay True/False for CNc1nc(SC)nc2ccccc12 [GSK353069A] .
Reply text: TRUE

Inquiry: I would be grateful if you could share the reported hit in BV2/M. marinum assay True/False for CNc1nc(SCC(=O)N(C)Cc2ccc(Cl)s2)nc2ccccc12 [GSK1925843A] .
Reply text: TRUE

###

Tested on: D. discoideum GFP-ABD
Conditions: 10 µM
reported_endpoint: D. discoideum GFP-ABD normalised growth, control=1.00, mean
Give a plain numeric answer without units written out.

[
  {
    "compound": "COc1cc(CN2CCC3(C=Cc4ccccc43)CC2)cc2c1OCO2",
    "assay_system": "D. discoideum GFP-ABD",
    "result_value": 0.86
  },
  {
    "compound": "Br.CCc1ccccc1OCCCON1C(=N)N=C(N)NC1(C)C [BRL-10143SA]",
    "assay_system": "D. discoideum GFP-ABD",
    "result_value": 0.53
  },
  {
    "compound": "O=C(NC12CC3CC(CC(C3)C1)C2)c1cc2cc(Cl)ccc2[nH]1 [GW623128X]",
    "assay_system": "D. discoideum GFP-ABD",
    "result_value": 1.06
  }
]

Inquiry: I would be grateful if you could share the reported D. discoideum GFP-ABD normalised growth, control=1.00, mean for O=C(NC(Cc1ccccc1)C(=O)Nc1ccccc1N1CCOCC1)c1cccs1 (stereo not drawn) [GSK1055950A] .
Reply text: 1.07

Inquiry: I would be grateful if you could share the reported D. discoideum GFP-ABD normalised growth, control=1.00, mean for O=C(C=Cc1cccs1)N1CCN(Cc2ccc3c(c2)OCO3)CC1 [GW861072X] .
Reply text: 0.68

Inquiry: I would be grateful if you could share the reported D. discoideum GFP-ABD normalised growth, control=1.00, mean for Cc1nc2ccccn2c1C(=O)NCc1ccc2c(c1)OCO2 [GSK498315A] .
Reply text: 0.81

Inquiry: I would be grateful if you could share the reported D. discoideum GFP-ABD normalised growth, control=1.00, mean for CSc1ccccc1C(=O)Nc1nc(-c2ccccn2)cs1 [GSK921190A] .
Reply text: 0.94

Inquiry: I would be grateful if you could share the reported D. discoideum GFP-ABD normalised growth, control=1.00, mean for Br.CC1(C)NC(N)=NC(=N)N1OCCCOc1ccc(Cl)cc1Cl [BRL-51091AM] .
Reply text: 0.97

Inquiry: I would be grateful if you could share the reported D. discoideum GFP-ABD normalised growth, control=1.00, mean for Cc1ccc(C(=O)Nc2nc(-c3ccccn3)cs2)s1 [GSK1372568A] .
Reply text: 0.31

###

System: D. discoideum GFP-ABD
Conditions: 10 µM
Threshold check on D. discoideum GFP-ABD normalised growth, control=1.00, mean: at or above 0.8 gives TRUE, strictly below gives FALSE.

[
  {
    "compound": "Nc1cccnc1Nc1ccc(Cl)cc1 [GR135486X]",
    "label_class": "FALSE"
  },
  {
    "compound": "c1csc(Cc2nn3c(-c4[nH]nc5c4CCC5)nnc3s2)c1 [GSK810037A]",
    "label_class": "FALSE"
  },
  {
    "compound": "O=C(c1cc2ccccc2o1)N1CCN(Cc2ccc3c(c2)OCO3)CC1 [GSK861337A]",
    "label_class": "FALSE"
  },
  {
    "compound": "Cc1nc2ccccn2c1C(=O)NCc1cccs1 [GSK892651A]",
    "label_class": "TRUE"
  }
]

Inquiry: Decide: is the reported value of D. discoideum GFP-ABD normalised growth, control=1.00, mean for O=C(C=Cc1cccs1)N1CCN(Cc2ccc(Br)s2)CC1 [GSK1744926A] equal to or greater than 0.8?
Reply text: FALSE

Inquiry: Decide: is the reported value of D. discoideum GFP-ABD normalised growth, control=1.00, mean for CN1CCN(c2cc(-c3ccncc3)nc(-c3ccccc3)n2)CC1 [GSK275984A] equal to or greater than 0.8?
Reply text: FALSE

Inquiry: Decide: is the reported value of D. discoideum GFP-ABD normalised growth, control=1.00, mean for COc1ccc2sc(Nc3nc(-c4ccccn4)cs3)nc2c1 [GSK690382A] equal to or greater than 0.8?
Reply text: TRUE

Inquiry: Decide: is the reported value of D. discoideum GFP-ABD normalised growth, control=1.00, mean for O=C(NCc1ccc2c(c1)OCO2)c1c(C(F)(F)F)nc2ccccn12 [GSK1829671A] equal to or greater than 0.8?
Reply text: TRUE

Inquiry: Decide: is the reported value of D. discoideum GFP-ABD normalised growth, control=1.00, mean for Cc1ccc2nc(C)c(-c3ccn(Cc4ccccc4)n3)n2c1 [GSK847920A] equal to or greater than 0.8?
Reply text: FALSE

Inquiry: Decide: is the reported value of D. discoideum GFP-ABD normalised growth, control=1.00, mean for COc1ccccc1OCCCCn1c(C2CC2)nc2ccccc21 [GSK994258A] equal to or greater than 0.8?
Reply text: FALSE

Inquiry: Decide: is the reported value of D. discoideum GFP-ABD normalised growth, control=1.00, mean for Cc1ccc2nc(C(F)(F)F)c(C(=O)NCc3ccc(C)o3)n2c1 [GSK1829728A] equal to or greater than 0.8?
Reply text: TRUE

Inquiry: Decide: is the reported value of D. discoideum GFP-ABD normalised growth, control=1.00, mean for N#Cc1ccc2c(c1)CCN(CCCSc1ccnc3cc(C(F)(F)F)ccc13)CC2 [GSK254610A] equal to or greater than 0.8?
Reply text: TRUE

Inquiry: Decide: is the reported value of D. discoideum GFP-ABD normalised growth, control=1.00, mean for CCOc1ccc(-c2nc(CNCCc3ccc(F)cc3)cs2)cc1.O=C(O)C(=O)O [GSK1759150A] equal to or greater than 0.8?
Reply text: FALSE

Inquiry: Decide: is the reported value of D. discoideum GFP-ABD normalised growth, control=1.00, mean for Cc1ccc2nc(C(F)(F)F)c(C(=O)NCc3ccc4c(c3)OCO4)n2c1 [GSK1829732A] equal to or greater than 0.8?
Reply text: TRUE
